B1: TPR 5TU (parent)
chain: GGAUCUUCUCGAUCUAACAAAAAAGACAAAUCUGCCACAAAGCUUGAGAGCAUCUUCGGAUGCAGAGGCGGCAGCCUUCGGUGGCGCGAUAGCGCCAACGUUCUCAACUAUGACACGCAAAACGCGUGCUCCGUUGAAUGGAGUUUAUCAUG

- Variants of: B1
- Measurement description: polymerase ribozyme fitness, log enrichment relative to wild type (log ratio); higher = more active; in vitro selection for triplet polymerase activity
This sample holds only a part of the variants without activity.
Rule: polymerase ribozyme fitness (log ratio) under -3 gives false (0), otherwise true (1).

{"Mutation spec": "U31C G34A C69G C85U U134C", "Answer label": "true (1)"}
{"Mutation spec": "A49U G50A C85G C116G A121U", "Answer label": "true (1)"}
{"Mutation spec": "C63U C69A G80A C85U G94C C99A", "Answer label": "false (0)"}
{"Mutation spec": "C87A A89U", "Answer label": "false (0)"}
{"Mutation spec": "A17C A23U A40C G86U", "Answer label": "false (0)"}

QUERY: Textbook exercise: given the entry G11A U55G G74C U77C A98U A115C , state whether its polymerase ribozyme fitness (log ratio) is greater than or equal to -3.
RESULT: false (0)

QUERY: Form field: polymerase ribozyme fitness (log ratio) at least -3? Entry: G34U A37G G50U A89C G92A A138U
RESULT: false (0)

QUERY: Exam item: decide whether the reported polymerase ribozyme fitness (log ratio) for U55G C69U is at least -3.
RESULT: true (1)

QUERY: Please indicate if the recorded polymerase ribozyme fitness (log ratio) for A21G C116G U144G meets or exceeds -3.
RESULT: true (1)

QUERY: I'd appreciate it if you could say whether A60C G94C A97G A98G U134C has polymerase ribozyme fitness (log ratio) at least equal to -3.
RESULT: false (0)

QUERY: Exam item: decide whether the reported polymerase ribozyme fitness (log ratio) for C103A U146C is at least -3.
RESULT: true (1)
